- Species: Rattus norvegicus
- measurement protocol: Open TG-GATES - Regimen: Daily Repeat
- Assay type: toxicity, organism-based, Sprague-Dawley
- Parameters: regimen Daily Repeat, gender Male, age 6 weeks
- reported conditions: in vivo, po, 100 mg/kg, […], tissue Blood, route gavage, dose level Low, time 14 day
endpoint: PT
Lab note: write values as number then unit, every time.

Known results for compounds:
INSERT INTO assay_data (compound, value_measured) VALUES
  ('CCN1CCCC1CNC(=O)c1cc(S(N)(=O)=O)ccc1OC (centres undefined) [SULPIRIDE]', '13.1 s'),
  ('CC(C)(S)[C@@H](N)C(=O)O', '13.8 s'),
  ('O=C(O)c1cccnc1', '15.8 s');

Would you kindly look at the next entry?
So, O=C(N[C@H](CO)[C@H](O)c1ccc([N+](=O)[O-])cc1)C(Cl)Cl ? Its PT was 14.5 s

* * *

- Species on record: Rattus norvegicus
- measurement protocol: Open TG-GATES - Regimen: Single
- Format: toxicity, organism-based, Sprague-Dawley
- Design: regimen Single, gender Male, age 6 weeks
- reported conditions: in vivo, po, 0 mg/kg, 24 h, tissue Plasma, route gavage, dose level Control
Consider the following compounds; for each one, report its AST.
Lab note: write values as number then unit, every time.

I have 4 compounds here; please give me AST for each one.
1. CCN1CCCC1CNC(=O)c1cc(S(N)(=O)=O)ccc1OC (centres undefined) [SULPIRIDE]
2. CCC(C)(C)C(=O)O[C@H]1C[C@@H](C)C=C2C=C[C@H](C)[C@H](CC[C@@H]3C[C@@H](O)CC(=O)O3)[C@H]21
3. CCSCC[C@H](N)C(=O)O
4. C[C@]12CCC(=O)C=C1CC[C@@H]1[C@@H]2CC[C@@]2(C)[C@H]1CC[C@]2(C)O

## Output
["77.2 IU/L", "65 IU/L", "66.8 IU/L", "74.2 IU/L"]

* * *

- Organism: Rattus norvegicus
- measurement protocol: Open TG-GATES - Regimen: Single
- Type: toxicity, organism-based, Sprague-Dawley
- Parameters: regimen Single, gender Male, age 6 weeks
- reported conditions: in vivo, po, 0 mg/kg, 6 h, tissue Plasma, route gavage, dose level Control
endpoint: DBIL
Lab note: write values as number then unit, every time.

Known results for compounds:
INSERT INTO results (compound, value_measured) VALUES
  ('O=C(O)c1cccnc1', '0 mg/dL'),
  ('CC(=O)Oc1cc(C(C)C)c(OCCN(C)C)cc1C', '0.024 mg/dL'),
  ('CC(=N)S [THIOACETAMIDE]', '0.012 mg/dL'),
  ('CN1C(=O)OC(C)(C)C1=O', '0.002 mg/dL');

I have 7 compounds here; please give me DBIL for each one.
1. C[C@]12CCC(=O)C=C1CC[C@@H]1[C@@H]2CC[C@@]2(C)[C@H]1CC[C@]2(C)O
2. CCSCC[C@H](N)C(=O)O
3. O=C(N[C@H](CO)[C@H](O)c1ccc([N+](=O)[O-])cc1)C(Cl)Cl
4. C[C@](N)(Cc1ccc(O)c(O)c1)C(=O)O
5. CCC(C)(C)C(=O)O[C@H]1C[C@@H](C)C=C2C=C[C@H](C)[C@H](CC[C@@H]3C[C@@H](O)CC(=O)O3)[C@H]21
6. Nc1nc(N)c2nc(-c3ccccc3)c(N)nc2n1
7. C#C[C@]1(O)CC[C@H]2[C@@H]3CCc4cc(O)ccc4[C@H]3CC[C@@]21C

## Output
0.012 mg/dL
0.076 mg/dL
0.014 mg/dL
0.014 mg/dL
0.046 mg/dL
0.012 mg/dL
0.012 mg/dL

I have 5 compounds here; please give me DBIL for each one.
1. CC(C)(S)[C@@H](N)C(=O)O
2. CCc1oc2ccccc2c1C(=O)c1cc(I)c(O)c(I)c1
3. CCN1CCCC1CNC(=O)c1cc(S(N)(=O)=O)ccc1OC (stereo unspecified) [SULPIRIDE]
4. Oc1ncnc2[nH]ncc12
5. CC(C)C(=O)Nc1ccc([N+](=O)[O-])c(C(F)(F)F)c1 [FLUTAMIDE]

## Output
1: 0.008 mg/dL; 2: 0.046 mg/dL; 3: 0.01 mg/dL; 4: 0.032 mg/dL; 5: 0.1 mg/dL
